- Test system: PC-3 prostate
- EXPERIMENTAL DETAILS: NCI-60 one-dose screen, 48 h (100 = growth as untreated, 0 = no growth, -100 = all killed)
- CONDITION DETAILS: 10 µM unless noted
Compounds without any hit were thinned out: in the full panel of roughly 83,000, 20% have a hit. Activity calls are given as the source filed them. How the source made its calls: active means growth percent below 10; inactive means the rest.
Below, each of the molecules is paired with its reported growth value.

{"MOLECULE": "O=S(=O)(NCCNc1nccc(-c2c(-c3cccc(O)c3)nc3occn23)n1)c1ccccc1", "growth": "85.3% (inactive)"}
{"MOLECULE": "CCOC(=O)[C@@H](C)C[C@H](Cc1ccccc1)NC(=O)c1csc([C@@H](C[C@H](C(C)C)N(C)C(=O)[C@@H](NC(=O)[C@H]2C[C@H](O[Si](C)(C)C(C)(C)C)CCN2C)C(C)C)OC(C)=O)n1", "growth": "6.78% [9.25 µM] (active)"}
{"MOLECULE": "COc1ccc(C(=O)CC#N)cc1", "growth": "105% (inactive)"}
{"MOLECULE": "CCN1C(=O)N(CC)C2Nn3c(s/c(=C\\c4ccc(OC)cc4)c3=O)=NC21 (stereo not given)", "growth": "44.1% (inactive)"}
{"MOLECULE": "NC1=NN=C(N)C1=Cc1cc2ccccc2n2nnnc12", "growth": "86.6% (inactive)"}
{"MOLECULE": "N#C/C(=C\\c1ccc([N+](=O)[O-])s1)c1nc2cc(Br)ccc2s1", "growth": "-49% (active)"}
{"MOLECULE": "CC(=O)N1c2ccccc2NC2=C(C(=O)NC2(C)C)C1c1ccco1 (stereo not given)", "growth": "54.6% (inactive)"}
{"MOLECULE": "O=C1C=CC(=O)N1c1cccc(Cl)c1", "growth": "89.2% (inactive)"}
{"MOLECULE": "O=c1c2c(c(=O)n1O)c1c3ccc[nH]c3nc1c1nc3[nH]cccc3c12", "growth": "67.7% (inactive)"}
{"MOLECULE": "C=C(C)[C@@H]1CC[C@]2(C(=O)N3CCN(C)CC3)CC[C@]3(C)[C@H](CC[C@@H]4[C@@]5(C)CC[C@H](OCCC#N)C(C)(C)[C@@H]5CC[C@]43C)[C@@H]12", "growth": "72.2% (inactive)"}
{"MOLECULE": "CCCCCOc1ccc(/C=N/Nc2cc(C)nc3ccc(Cl)cc23)cc1", "growth": "9.76% (active)"}
{"MOLECULE": "COc1cc(/C=C\\c2cc(OC)c(OC)c(OC)c2)cc(NC(=O)/C=C/c2cc(OC)c(OC)c(OC)c2)c1OC", "growth": "29.3% (inactive)"}
{"MOLECULE": "NS(=O)(=O)c1ccc(CCN2C(=O)C=CC2=O)cc1", "growth": "100% (inactive)"}
{"MOLECULE": "Cn1c2ccccc2c2c3c(c4c5ccccc5n(C)c4c21)C(=O)OC3", "growth": "90.6% (inactive)"}
{"MOLECULE": "CN(CCN(C)c1ccc(C(=N)N)cc1)c1ccc(C(=N)N)cc1", "growth": "81.3% (inactive)"}
{"MOLECULE": "N/C(=N\\C(N)=N\\c1nc2ccccc2s1)c1cnccn1", "growth": "31.1% (inactive)"}
{"MOLECULE": "CN(C)CC(O)c1ccc(/C=C/c2ccc(Cl)cc2)cc1 (stereo not given)", "growth": "-30.3% (active)"}
{"MOLECULE": "O=[N+]([O-])c1ccc(NC(=S)N/N=C/c2cc3ccccc3n3nnnc23)cc1", "growth": "34.5% (inactive)"}
{"MOLECULE": "COc1cc(-c2n/c(=C\\c3c(O)[nH]c4ccc(Cl)cc34)cc3c2=Nc2ccccc2-3)ccc1F", "growth": "-8.04% (active)"}
{"MOLECULE": "COc1ccc(C(C)=O)c(OC)c1", "growth": "91.1% (inactive)"}
